Biological target: Protease (Human immunodeficiency virus 1, UniProt Q9YQ12)
Assay: Inhibition of HIV1 protease
Sequence (Q9YQ12 whole entry): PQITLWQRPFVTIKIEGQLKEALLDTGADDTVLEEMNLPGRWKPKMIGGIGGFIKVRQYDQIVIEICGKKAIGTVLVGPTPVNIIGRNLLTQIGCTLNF
Ki: recorded values
The reply should contain only the number, in nM.

compound: CC(C)CN(C[C@@H](O)[C@H](Cc1ccccc1)NC(=O)O[C@@H]1C[C@@H]2CCO[C@@H]2C1)S(=O)(=O)c1ccc(CO)cc1
unit name: nM
Ki: 0.0045

Now take the following compound into account.
Task item: Which Ki reading was recorded for the compound C=CCNC(=O)[C@H]1NC(C(=O)[C@@H](O)[C@H](Cc2ccccc2)NC(=O)c2cccc(O)c2)SC1(C)C (some centres not stated) ?
Reply: 0.1

###

Target: Protease (Human immunodeficiency virus 1)
Assay: Inhibition of HIV1 protease mutant
Sequence (Q9YQ12 1-99): as the sequence (Q9YQ12 whole entry) above
observation type: pKi
pKi (log units): -log10 of the concentration in mol/L.

Task item: Entry C=CCNC(=O)[C@H]1NC(C(=O)[C@@H](O)[C@H](Cc2ccccc2)NC(=O)c2cccc(O)c2)SC1(C)C (stereo partly specified) : reported pKi = ?
Reply: 10.00

###

Target: UniProtKB Q9YQ12
observation type: IC50 (nM)
Please state the figure in nM; there is no need to write the unit.

Task item: Param readout = IC50; param system = UniProtKB Q9YQ12; param query = CC(C)CN(C[C@@H](O)[C@H](Cc1ccccc1)NC(=O)O[C@@H]1C[C@@H]2CCO[C@@H]2C1)S(=O)(=O)c1ccc(CO)cc1 ; response: value
Reply: 1.8

###

In this section, each of the compounds is paired with its reported IC50.
System: Human immunodeficiency virus 1
Test: Antiviral activity against HIV1 in CEM cells
Type: functional
Details: Human immunodeficiency virus 1, CCRF-CEM; read-out: ID50 (the source's name)
I only need the number, in nM, no unit after it.

structure: COc1ccc(S(=O)(=O)N(CC(C)C)C[C@@H](O)[C@H](Cc2ccccc2)NC(=O)O[C@H]2CO[C@H]3OCC[C@H]32)cc1
observation type: IC50
test result: 1.2

Continue with the next compound.
Task item: I would be grateful if you could share the reported IC50 for CC(C)CN(C[C@@H](O)[C@H](Cc1ccccc1)NC(=O)O[C@H]1CO[C@H]2OCC[C@H]21)S(=O)(=O)c1ccc(N)cc1 .
Reply: 4.7
